System: phospho-akt (Thr308) in PC-3 cells
ASSAY OVERVIEW: Inhibition of phospho-akt (Thr308) in PC-3 cells, MSD phospho-akt 308 ELISA kit
Format: cell-based
RUN CONDITIONS: Homo sapiens; inhibition of P308 Akt in PC-3 cells using MSD, 2 hours, no serum; read-out: EC50
pEC50: −log10 of the molar value.
QUANTITY NAME: pEC50

Example entries and their recorded answers appear below.
INSERT INTO assay_data (compound, value_reported) VALUES
  ('C[C@H](NC(=O)c1cc(C#N)cnc1NCc1ccc(-c2cnc(N)c(C#N)c2)cc1)c1ccc(F)cc1 [Example 115]', '< 5.00'),
  ('Cn1nc(-c2ccc(CNc3ncc(C(F)(F)F)cc3C(=O)NCc3ccc(F)c(F)c3)cc2)c2c(N)ncnc21 [Example 332]', '5.00 to 6.00'),
  ('Cn1cc(-c2ccc(CNc3ncc(C(F)(F)F)cc3C(=O)NCc3ccc(F)c(F)c3)cc2)c2c(N)ncnc21 [Example 331]', '> 6.00');

Next compound, pEC50 to be filled in.
Req: Under phospho-akt (Thr308) in PC-3 cells: pEC50 value of C[C@H](NC(=O)c1cc(C#N)cnc1NCc1ccc(-c2cnc(N)c(C(=O)N3CCNCC3)n2)cc1)c1ccc(F)cc1 [Example 221] ?
Resp: 5.00 to 6.00
